# assayed-target: GSPT1 (Homo sapiens, UniProt P15170+Q96SW2)
# Sequence (P15170 whole entry): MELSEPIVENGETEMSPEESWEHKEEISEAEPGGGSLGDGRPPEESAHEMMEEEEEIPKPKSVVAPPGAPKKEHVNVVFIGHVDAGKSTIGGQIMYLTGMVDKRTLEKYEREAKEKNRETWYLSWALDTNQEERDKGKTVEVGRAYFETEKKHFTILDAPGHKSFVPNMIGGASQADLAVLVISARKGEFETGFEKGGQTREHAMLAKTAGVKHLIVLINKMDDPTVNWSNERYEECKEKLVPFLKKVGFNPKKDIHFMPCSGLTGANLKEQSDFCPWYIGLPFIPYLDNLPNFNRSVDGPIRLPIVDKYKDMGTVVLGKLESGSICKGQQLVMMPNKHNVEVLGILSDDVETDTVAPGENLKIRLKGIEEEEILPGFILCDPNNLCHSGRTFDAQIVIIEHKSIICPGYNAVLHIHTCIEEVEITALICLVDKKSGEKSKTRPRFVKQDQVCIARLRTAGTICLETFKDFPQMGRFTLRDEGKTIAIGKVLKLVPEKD
# Sequence (Q96SW2 whole entry): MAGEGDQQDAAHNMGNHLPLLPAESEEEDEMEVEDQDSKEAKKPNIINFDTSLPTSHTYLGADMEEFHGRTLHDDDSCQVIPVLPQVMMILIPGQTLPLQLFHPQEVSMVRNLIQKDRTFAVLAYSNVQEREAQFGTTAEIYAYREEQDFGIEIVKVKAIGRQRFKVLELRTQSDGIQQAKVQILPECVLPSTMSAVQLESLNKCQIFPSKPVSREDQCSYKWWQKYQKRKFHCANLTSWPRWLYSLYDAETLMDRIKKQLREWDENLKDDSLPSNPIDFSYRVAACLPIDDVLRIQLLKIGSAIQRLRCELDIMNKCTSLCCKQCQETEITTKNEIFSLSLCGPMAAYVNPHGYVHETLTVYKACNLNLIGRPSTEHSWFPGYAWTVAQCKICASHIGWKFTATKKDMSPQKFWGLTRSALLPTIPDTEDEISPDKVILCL
# Sequence (Q16531 whole entry partner): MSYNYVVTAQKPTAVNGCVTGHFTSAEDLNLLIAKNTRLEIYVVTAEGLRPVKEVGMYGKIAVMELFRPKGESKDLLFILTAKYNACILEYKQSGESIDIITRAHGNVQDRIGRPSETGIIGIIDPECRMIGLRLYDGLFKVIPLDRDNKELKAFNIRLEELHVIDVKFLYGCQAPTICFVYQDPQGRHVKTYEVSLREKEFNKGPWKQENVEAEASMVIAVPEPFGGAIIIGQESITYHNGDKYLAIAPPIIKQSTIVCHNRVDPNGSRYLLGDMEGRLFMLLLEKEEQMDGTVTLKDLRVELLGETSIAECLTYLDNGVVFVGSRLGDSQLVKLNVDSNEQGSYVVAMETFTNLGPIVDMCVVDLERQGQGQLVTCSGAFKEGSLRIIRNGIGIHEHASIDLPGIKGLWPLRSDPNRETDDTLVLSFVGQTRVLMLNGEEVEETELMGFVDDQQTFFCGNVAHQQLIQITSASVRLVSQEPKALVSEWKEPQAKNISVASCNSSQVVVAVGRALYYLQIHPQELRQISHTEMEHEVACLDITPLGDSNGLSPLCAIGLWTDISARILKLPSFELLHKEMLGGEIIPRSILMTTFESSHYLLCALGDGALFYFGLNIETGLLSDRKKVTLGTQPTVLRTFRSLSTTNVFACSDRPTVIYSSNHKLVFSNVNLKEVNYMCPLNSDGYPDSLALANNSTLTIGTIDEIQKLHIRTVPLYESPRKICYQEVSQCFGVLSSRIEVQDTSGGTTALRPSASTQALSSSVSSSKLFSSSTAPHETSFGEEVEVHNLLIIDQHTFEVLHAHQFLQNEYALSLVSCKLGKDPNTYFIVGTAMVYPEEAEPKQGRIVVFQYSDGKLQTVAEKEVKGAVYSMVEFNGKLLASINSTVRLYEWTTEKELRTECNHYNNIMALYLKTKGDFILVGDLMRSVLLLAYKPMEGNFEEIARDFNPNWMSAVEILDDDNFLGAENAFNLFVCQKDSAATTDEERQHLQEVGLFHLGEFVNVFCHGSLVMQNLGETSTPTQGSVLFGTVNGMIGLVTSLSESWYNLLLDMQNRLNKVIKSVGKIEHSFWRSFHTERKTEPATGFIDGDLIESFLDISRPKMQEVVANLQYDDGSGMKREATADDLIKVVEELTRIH
# measurement-notes: HiBiT degradation assay, GSPT1, Procedure A
# Format: cell-based
# Set-up: HiBit-GSPT1 KI HEK293(LgBit) Cells; host or cells: HEK293(LgBit) knock-in cells
# measurement-parameters: six hours incubation
assay-metric: DC50

Examples from the recorded data:
Cn1ncc(-c2ccc3c(c2)CN(C2CCC(=O)NC2=O)C3=O)c1-c1ccc(CO)cc1 (stereo not shown): ≥ 25 nM
Cn1nc(-c2ccc3c(c2)CN(C2CCC(=O)NC2=O)C3=O)cc1-c1ccccc1 (stereo not shown): ≥ 25 nM

# context switch: different molecule, same DC50
Look up DC50: Cn1cnc(-c2ccc3c(c2)CN(C2CCC(=O)NC2=O)C3=O)c1-c1cccc(CN2CCCC2)c1 (stereo not shown)
≥ 25 nM
